Test: qHTS of pediatric cancer cell lines to identify multiple opportunities for drug repurposing: Primary screen for A673 cells (AID 1347092); note: nearly all actives have a fitted effect of over 45% in size; note: potency is the fitted concentration of half-maximal effect
Conditions: A673 Ewing sarcoma viability, CellTiter-Glo ATP luminescence, 48 h; series mostly up to 46 µM
Results filed as inconclusive are left out. The source made the active and inactive calls. Calls come from the whole dose curve; as a rule, active = well fitted cell-killing curve with a large enough effect; inconclusive = small, poorly fitted or top-dose-only effect; inactive = no such curve, though single readings can be large or run the other way.
METRIC NAME: Potency

O=C1NCC2(CCN(CCc3ccccc3)CC2)O1 ... inactive
CC1(C)O[C@H]2C[C@@H]3[C@H]4CCC5=CC(=O)C=C[C@]5(C)[C@@]4(F)[C@@H](O)C[C@]3(C)[C@]2(C(=O)CO)O1 ... 3.72 µM (active)
CCOC(=O)O[C@]1(C(=O)OCCl)CC[C@@H]2[C@H]3CCC4=CC(=O)C=C[C@]4(C)[C@@H]3[C@@H](O)C[C@@]21C ... inactive
N#Cc1ccc(NC(=O)Nc2ccccc2Br)c2n[nH]nc12 ... 23.5 µM (active)
C[C@@H](O)[C@H]1C(=O)N2C(C(=O)O)=C(S[C@@H]3CN[C@H](C(=O)N(C)C)C3)[C@H](C)[C@H]12 ... inactive

Q. What does the record list as Potency for CC(C)(C)C(=O)Oc1ccc2c(c1)nc(NC(=O)c1cccc([N+](=O)[O-])c1)n2CCCO ?
A. 11.8 µM (active)

Q. What does the record list as Potency for Cc1ccc(C(=O)Nc2cccc(C(F)(F)F)c2)cc1Nc1nc(-c2cccnc2)nc2c1cnn2C ?
A. 9.35 µM (active)

Q. What does the record list as Potency for OC[C@H]1O[C@@H](Oc2cc(O)cc(C=Cc3ccc(O)cc3)c2)[C@H](O)[C@@H](O)[C@H]1O ?
A. 9.35 µM (active)

Q. What does the record list as Potency for O=C1NC(=O)C(c2ccccc2)(c2ccccc2)N1 ?
A. inactive

Q. What does the record list as Potency for CO[C@H]1C[C@@H]2CC[C@@H](C)[C@@](O)(O2)C(=O)C(=O)N2CCCC[C@@H]2C(=O)O[C@H]([C@@H](C)C[C@@H]2CC[C@H](O)[C@H](OC)C2)CC(=O)[C@H](C)C=C(C)[C@@H](O)[C@@H](OC)C(=O)[C@H](C)C[C@H](C)C=CC=CC=C1C ?
A. inactive
